Data provenance is PubChem BioAssay (NCI).

TGI: recorded values
- Tested on: MCF7 breast
- assay comment: NCI tumour cell line growth inhibition, 48 h

Before answering, review these 10 worked examples.
CNc1cccc2c1C(C)C[C@]1(C)C(=O)Nc3ccccc3[C@H]21 (stereo partly specified) : 47.4 µM
C=C(C[C@@H](O)[C@H](C)NC(=O)OCc1ccccc1)C(=O)OC(C)(C)C : > 100 µM
CCOC(=O)C(O)Cc1cnc2ccccc2n1 (stereo unspecified) : > 100 µM
Brc1ccc(N=Nc2ccc3ccccc3n2)cc1 : > 100 µM
C=C(C)CCN(C(=O)OC(C)(C)C)c1cc(C(C)C)co1 : > 100 µM
O=c1cc(-c2ccc3ccccc3c2)[nH]c2ncccc12 : > 100 µM
COc1ccccc1Nc1nc2ccccc2c2occc12 : > 50 µM
N/N=C(/CC(O)(C(F)(F)F)C(F)(F)F)c1ccccc1 : > 10 µM
COc1ccc(Nc2ncc(-c3ccccc3)o2)cc1OC : > 25 µM
CCOC(=O)CON=c1c2ccccc2ccc2ccccc12 : > 100 µM

// switching to the query compound
Supply recorded TGI for CC(C)(C)CN1[C@@H]2CCCC[C@H]2N(CC(C)(C)C)P1(=O)C(O)/C=C/c1ccccc1 (stereo partly specified) here.
> 100 µM

---

Below, each entry is listed with its recorded TGI.
- Tested on: SNB-19 CNS
- assay comment: NCI tumour cell line growth inhibition, 48 h

Oc1ccc2ccccc2c1NCn1nc(CCCCCCCCc2nn(CNc3c(O)ccc4ccccc34)c(=S)o2)oc1=S : > 100 µM

Input "CCC1(CC)C(=O)NN(C(=O)c2ccc(Cl)cc2)C1=O" , output reported TGI.
> 100 µM

Provide only the value of recorded TGI for O=C1OC(C2Cc3ccc4c(c3C2=O)CCCC4)c2ccccc21 (stereo unspecified)
> 100 µM

Tell me its TGI given O=C(/N=C1/OC(CN2CCOCC2)CN1C(=O)Nc1ccccc1)Nc1ccccc1 (stereo unspecified) as the entry.
> 100 µM

Hello, please tell me recorded TGI for this one: O=C(NN1C(=O)C(Cl)C1c1cccc(Cl)c1)c1ccccc1O (stereo unspecified)
> 100 µM

---

- Test system: SK-MEL-28 melanoma
- assay comment: NCI tumour cell line growth inhibition, 48 h
Parameter TGI: see the listing below.

Worked cases, answers included:
O=C(CSc1nc2ccc(I)cc2c(=O)n1Cc1ccccc1)NN1C(=O)CSC1c1ccccc1 (centres undefined) : 95.9 µM
CCOC(=O)C(C)c1nc2cc(C(F)(F)F)ccc2[nH]c1=O (centres undefined) : > 100 µM
Cn1c(-c2cccs2)cc(-c2ccsc2)c1-c1cccs1 : > 100 µM
O=C1O/C(=C(/Cl)c2c3ccccc3cc3ccccc23)c2ccccc21 : > 100 µM
CC(=O)N1N=C(c2ccc(Nc3nc(Nc4ccc(F)cc4)nc(Nc4ccc(Cl)cc4)n3)cc2)CC1c1ccc(N(C)C)cc1 (centres undefined) : 40.1 µM
CCN(CC)c1ccc2cc(-c3csc(C)n3)c(=O)oc2c1 : > 100 µM

Answer with the recorded TGI of "CC[C@H]1C=CCC[C@@]2(C[C@@H]3CC[C@H]4[C@@H](C(=O)OCCCCCCCCCCCCCCCC(=O)N(CCCNC(C)=O)C[C@H](CCNC(C)=O)OC(C)=O)[C@@]5(CCC[C@@H](C)O5)NC(=[N+]34)N2)O1" only.
2.63 µM

Quote TGI reported for "N/N=C(/CC(O)(C(F)(F)F)C(F)(F)F)c1ccccc1" please.
> 10 µM

Hello, please tell me recorded TGI for this one: "N#CCN1CCN(CC#N)CCN(CC#N)CCN(CC#N)CC1"
> 100 µM

---

- Tested on: SNB-19 CNS
- assay comment: NCI tumour cell line growth inhibition, 48 h; in the data active = GI50 below about 0.43 µM; inactive = the rest
Please reply with one of these outcomes: active, inactive

N=C1N=C(N)S/C1=C\c1ccc2ncccc2c1 : inactive
O=C(Nc1cc(C(F)(F)F)cc(C(F)(F)F)c1)Nc1ccc(OCc2nnc(-c3ccc(Cl)cc3)o2)c(F)c1 : inactive
CNC12C3C4C1C1C2C3C41C(=O)N[C@H](C(=O)N(C)[C@H](C[C@@H](OC(C)=O)c1nc(C(=O)N[C@@H](Cc2ccccc2)C[C@H](C)C(=O)OC)cs1)C(C)C)C1CC1 (stereo partly specified) : inactive
CC(C)c1ccc(/C=N/N=C(N)N)cc1 : inactive
Clc1ccc(-c2nc(C(Cl)Cl)nc3cc(-c4ccccc4)nn23)cc1 : inactive
NC(=NCCO)c1ccc(N2CCCN(c3ccc(C(N)=NCCO)cc3)CC2)cc1 : inactive
COc1ccc(C2CC(c3cccc(OC)c3)=NN2C(=O)c2cc(OC)c(OC)c(OC)c2)cc1 (stereo unspecified) : inactive
O=C(O)c1cc2cc(O)ccc2[nH]1 : inactive

// param item: CC(=O)[O][Hg][CH2]C1(C)COC(C)([CH2][Hg][O]C(C)=O)CO1 (stereo unspecified) ; yields the recorded call
inactive

Recorded test call requested for "C=C1[C@@H](O)C[C@H]2C(C)(C)C[C@H](Cl)C[C@]2(C)[C@H]1C[C@H](O)[C@H]1CC(=O)NC1=O"
active

Identify the outcome logged in this assay for the compound shown: "O=C1Nc2ccc(CN3CCOC3=O)cc2/C1=C/c1cc(CN2CCOCC2)c[nH]1"
inactive

State the result this test recorded for "COc1ccccc1Nc1nc2ccccc2c2occc12" .
inactive

Give the logged outcome of this assay for the following compound: "COc1ccc(Nc2ncc(-c3ccccc3)o2)cc1OC"
inactive

---

- Tested on: SK-MEL-5 melanoma
- assay comment: NCI tumour cell line growth inhibition, 48 h
Listed here are compounds together with their documented GI50.

COc1ccc(Nc2ncc(-c3ccccc3)o2)cc1OC : > 25 µM
O=c1cc(-c2ccc3ccccc3c2)[nH]c2ncccc12 : 3.46 µM
N#CSCC1CC(O)(c2ccccc2)CC(c2ccc(Cl)cc2)O1 (stereo not given) : 0.559 µM
CC(=O)N1N=C(c2ccc(Nc3nc(Nc4ccc(F)cc4)nc(Nc4ccc(Cl)cc4)n3)cc2)CC1c1ccc(N(C)C)cc1 (stereo not given) : 6.68 µM
C=C(CN(C)Cc1ccccc1)c1ccc(C(=O)Nc2ccccc2N)cc1 : 6.72 µM

Report GI50 on SK-MEL-5 melanoma for this entry: "N=C1N=C(N)S/C1=C\c1ccc2ncccc2c1"
> 25 µM

Write GI50 of C[CH2][Ge]([CH2]C)([CH2]C)[O]C(=O)C([O][Ge]([CH2]C)([CH2]C)[CH2]C)c1ccccc1 (stereo not given) ; system used: SK-MEL-5 melanoma
11.8 µM

Specify GI50 for "Clc1ccc(-c2nc(C(Cl)Cl)nc3cc(-c4ccccc4)nn23)cc1" , system SK-MEL-5 melanoma.
> 50 µM

State GI50 on SK-MEL-5 melanoma. Entry: CNC12C3C4C1C1C2C3C41C(=O)N[C@H](C(=O)N(C)[C@H](C[C@@H](OC(C)=O)c1nc(C(=O)N[C@@H](Cc2ccccc2)C[C@H](C)C(=O)OC)cs1)C(C)C)C1CC1 (stereo not given in full)
0.155 µM

Provide the reported GI50 (system: SK-MEL-5 melanoma) for "Cc1nc2ccccc2c(/C=C/c2ccccc2)c1C(=O)/C=C/c1ccc(Cl)cc1"
1.62 µM

---

- Tested on: HCC-2998 colon
- assay comment: NCI tumour cell line growth inhibition, 48 h
measurement kind: log10(TGI) (log10 of the value in µM)
In our notation, the value equals log10 of TGI in µM.

See these solved cases before continuing.
CC(=O)[O][Hg][CH2]C1(C)COC(C)([CH2][Hg][O]C(C)=O)CO1 (configuration not stated) : 1.48
CCOC(=O)Nc1ccc(C(=O)/C=C/c2ccccc2)cc1 : 1.50
COC1C(O)CC(OC2CC(OC3CC(O[C@@H]4C(=O)c5c(cc6cc(OC7CC(OC8CC(O)C(O)C(C)O8)C(O)C(C)O7)c(C)c(O)c6c5O)C[C@H]4[C@H](OC)C(=O)[C@@H](O)[C@@H](C)O)OC(C)C3O)OC(C)C2O)OC1C (some centres not stated) : -0.94
Nc1ncc(N)c(NCC2(CO)CC(CCc3ccccc3)C2)n1 (configuration not stated) : 1.37

--- query ---
Give a short answer stating reported log10(TGI) for "CC(=O)Oc1ccccc1C(=O)NCCC[Se]C#N" .
1.17

---

- System: HOP-62 NSCLC
- assay comment: NCI tumour cell line growth inhibition, 48 h
# log10 TGI per record follows
Please interpret these as log10 of TGI where TGI is in µM.

Study these solved cases before continuing.
c1ccc2c(-c3cnn4cc(-c5ccc(N6CCNCC6)cc5)cnc34)ccnc2c1 : 0.09
COC(=O)/C=C1/OC(c2ccc(C)cc2C)=CC1=O : 1.79
CN(C)CCC(/C=C/c1ccccc1)=N\Nc1ccc(Cl)cc1 : 0.61
CC(=O)Oc1ccccc1C(=O)NCCC[Se]C#N : 0.47
O=C1c2ccccc2C(=O)c2sc(Nc3ccc(Cl)cc3)nc21 : 0.97

Pending compound:
Enter measured log10 TGI, system HOP-62 NSCLC, for the compound shown: CC(=O)OC1CC2C(C)(C)OC(=O)CC(OC(C)=O)[C@]2(C)C2CCC3(C)C(=CCC3c3ccoc3)[C@]12C (stereo not given in full)
1.98
